pIC50 listing for selected compounds.
test system: forty-four human cancer cell lines; test: Cell proliferation assay (ATPlite, 72 hours) in the 44 cell line Oncolines panel; type: cell-based; conditions: Homo sapiens; cell line C-33 A; read-out: cell panel IC50, C-33 A
pIC50: −log10 of the molar value.

[
  {
    "line notation": "CNC(=O)c1cc(Oc2ccc(NC(=O)Nc3ccc(Cl)c(C(F)(F)F)c3)c(F)c2)ccn1",
    "pIC50": 5.99
  },
  {
    "line notation": "CO[C@H]1C[C@@H]2CC[C@@H](C)[C@@](O)(O2)C(=O)C(=O)N2CCCC[C@H]2C(=O)O[C@H]([C@H](C)C[C@@H]2CC[C@@H](OC(=O)C(C)(CO)CO)[C@H](OC)C2)CC(=O)[C@H](C)/C=C(\\C)[C@@H](O)[C@@H](OC)C(=O)[C@H](C)C[C@H](C)/C=C/C=C/C=C/1C",
    "pIC50": 7.47
  }
]

* * *

%-inhibition of PKN1 listing for selected molecules.
target: panel of more than 300 wild-type and mutant kinases (313 kinase panel) (Homo sapiens, UniProt Q16512); assay: Kinase profiling in a biochemical assay panel (mobility shift assays and ELISA), %-inhibition at 1 μM; selectivity entropy; details: kinase PKN1; 1 μM

[
  {
    "line notation": "COc1cc(Nc2c(C#N)cnc3cc(OCCCN4CCN(C)CC4)c(OC)cc23)c(Cl)cc1Cl",
    "%-inhibition of PKN1 [%]": 32
  },
  {
    "line notation": "N#CC[C@H](C1CCCC1)n1cc(-c2ncnc3[nH]ccc23)cn1",
    "%-inhibition of PKN1 [%]": 50
  },
  {
    "line notation": "Cc1ccc(Nc2nccc(N(C)c3ccc4c(C)n(C)nc4c3)n2)cc1S(N)(=O)=O",
    "%-inhibition of PKN1 [%]": 17
  },
  {
    "line notation": "Cc1cn(-c2cc(NC(=O)c3ccc(C)c(Nc4nccc(-c5cccnc5)n4)c3)cc(C(F)(F)F)c2)cn1",
    "%-inhibition of PKN1 [%]": 13
  },
  {
    "line notation": "CO[C@H]1C[C@@H]2CC[C@@H](C)[C@@](O)(O2)C(=O)C(=O)N2CCCC[C@H]2C(=O)O[C@H]([C@H](C)C[C@@H]2CC[C@@H](OC(=O)C(C)(CO)CO)[C@H](OC)C2)CC(=O)[C@H](C)/C=C(\\C)[C@@H](O)[C@@H](OC)C(=O)[C@H](C)C[C@H](C)/C=C/C=C/C=C/1C",
    "%-inhibition of PKN1 [%]": 0.71
  },
  {
    "line notation": "CCCS(=O)(=O)Nc1ccc(F)c(C(=O)c2c[nH]c3ncc(-c4ccc(Cl)cc4)cc23)c1F",
    "%-inhibition of PKN1 [%]": -0.378
  },
  {
    "line notation": "CNC(=O)c1cc(Oc2ccc(NC(=O)Nc3ccc(Cl)c(C(F)(F)F)c3)c(F)c2)ccn1",
    "%-inhibition of PKN1 [%]": 0.804
  }
]

* * *

target: panel of more than 300 wild-type and mutant kinases (313 kinase panel) (Homo sapiens, UniProt Q13627); assay: Kinase profiling in a biochemical assay panel (mobility shift assays and ELISA), %-inhibition at 1 μM; selectivity entropy; settings: kinase DYRK1A; compound at 1 μM
property: %-inhibition of DYRK1A (%)

[
  {
    "molecule": "CO[C@H]1C[C@@H]2CC[C@@H](C)[C@@](O)(O2)C(=O)C(=O)N2CCCC[C@H]2C(=O)O[C@H]([C@H](C)C[C@@H]2CC[C@@H](OC(=O)C(C)(CO)CO)[C@H](OC)C2)CC(=O)[C@H](C)/C=C(\\C)[C@@H](O)[C@@H](OC)C(=O)[C@H](C)C[C@H](C)/C=C/C=C/C=C/1C",
    "property": "%-inhibition of DYRK1A",
    "quantity unit": "%",
    "observed result": -3
  },
  {
    "molecule": "C[C@@H](Oc1cc(-c2cnn(C3CCNCC3)c2)cnc1N)c1c(Cl)ccc(F)c1Cl",
    "property": "%-inhibition of DYRK1A",
    "quantity unit": "%",
    "observed result": -13
  },
  {
    "molecule": "CCCS(=O)(=O)Nc1ccc(F)c(C(=O)c2c[nH]c3ncc(-c4ccc(Cl)cc4)cc23)c1F",
    "property": "%-inhibition of DYRK1A",
    "quantity unit": "%",
    "observed result": -18
  },
  {
    "molecule": "CO[C@H]1C[C@@H]2CC[C@@H](C)[C@@](O)(O2)C(=O)C(=O)N2CCCC[C@H]2C(=O)O[C@H]([C@H](C)C[C@@H]2CC[C@@H](OCCO)[C@H](OC)C2)CC(=O)[C@H](C)/C=C(\\C)[C@@H](O)[C@@H](OC)C(=O)[C@H](C)C[C@H](C)/C=C/C=C/C=C/1C",
    "property": "%-inhibition of DYRK1A",
    "quantity unit": "%",
    "observed result": -11
  },
  {
    "molecule": "COc1cc2nccc(Oc3ccc(NC(=O)C4(C(=O)Nc5ccc(F)cc5)CC4)cc3)c2cc1OC [cabozantinib]",
    "property": "%-inhibition of DYRK1A",
    "quantity unit": "%",
    "observed result": -5
  }
]

* * *

%-inhibition, BRSK1 listing for selected compounds.
target: panel of more than 300 wild-type and mutant kinases (313 kinase panel) (Homo sapiens); experiment: Kinase profiling in a biochemical assay panel (mobility shift assays and ELISA), %-inhibition at 1 μM; selectivity entropy; conditions: kinase BRSK1; 1 μM compound

[
  {
    "compound": "Cc1ccc(Nc2nccc(N(C)c3ccc4c(C)n(C)nc4c3)n2)cc1S(N)(=O)=O",
    "experimental system": "panel of more than 300 wild-type and mutant kinases (313 kinase panel) (Homo sapiens)",
    "%-inhibition, BRSK1 / %": -1.05
  },
  {
    "compound": "C[C@@H](Oc1cc(-c2cnn(C3CCNCC3)c2)cnc1N)c1c(Cl)ccc(F)c1Cl",
    "experimental system": "panel of more than 300 wild-type and mutant kinases (313 kinase panel) (Homo sapiens)",
    "%-inhibition, BRSK1 / %": 12
  },
  {
    "compound": "N#CC[C@H](C1CCCC1)n1cc(-c2ncnc3[nH]ccc23)cn1",
    "experimental system": "panel of more than 300 wild-type and mutant kinases (313 kinase panel) (Homo sapiens)",
    "%-inhibition, BRSK1 / %": -6.38
  },
  {
    "compound": "COc1cc(Nc2c(C#N)cnc3cc(OCCCN4CCN(C)CC4)c(OC)cc23)c(Cl)cc1Cl",
    "experimental system": "panel of more than 300 wild-type and mutant kinases (313 kinase panel) (Homo sapiens)",
    "%-inhibition, BRSK1 / %": -11
  },
  {
    "compound": "CCCS(=O)(=O)Nc1ccc(F)c(C(=O)c2c[nH]c3ncc(-c4ccc(Cl)cc4)cc23)c1F",
    "experimental system": "panel of more than 300 wild-type and mutant kinases (313 kinase panel) (Homo sapiens)",
    "%-inhibition, BRSK1 / %": -8
  },
  {
    "compound": "CO[C@H]1C[C@@H]2CC[C@@H](C)[C@@](O)(O2)C(=O)C(=O)N2CCCC[C@H]2C(=O)O[C@H]([C@H](C)C[C@@H]2CC[C@@H](OC(=O)C(C)(CO)CO)[C@H](OC)C2)CC(=O)[C@H](C)/C=C(\\C)[C@@H](O)[C@@H](OC)C(=O)[C@H](C)C[C@H](C)/C=C/C=C/C=C/1C",
    "experimental system": "panel of more than 300 wild-type and mutant kinases (313 kinase panel) (Homo sapiens)",
    "%-inhibition, BRSK1 / %": -14
  },
  {
    "compound": "COc1cc2c(Nc3ccc(Br)cc3F)ncnc2cc1OCC1CCN(C)CC1",
    "experimental system": "panel of more than 300 wild-type and mutant kinases (313 kinase panel) (Homo sapiens)",
    "%-inhibition, BRSK1 / %": -9
  },
  {
    "compound": "Cc1cn(-c2cc(NC(=O)c3ccc(C)c(Nc4nccc(-c5cccnc5)n4)c3)cc(C(F)(F)F)c2)cn1",
    "experimental system": "panel of more than 300 wild-type and mutant kinases (313 kinase panel) (Homo sapiens)",
    "%-inhibition, BRSK1 / %": 0.801
  },
  {
    "compound": "Cc1ccc(C(=O)Nc2ccc(CN3CCN(C)CC3)c(C(F)(F)F)c2)cc1C#Cc1cnc2cccnn12",
    "experimental system": "panel of more than 300 wild-type and mutant kinases (313 kinase panel) (Homo sapiens)",
    "%-inhibition, BRSK1 / %": -8
  },
  {
    "compound": "CC(=O)Nc1cccc(-n2c(=O)n(C3CC3)c(=O)c3c(Nc4ccc(I)cc4F)n(C)c(=O)c(C)c32)c1",
    "experimental system": "panel of more than 300 wild-type and mutant kinases (313 kinase panel) (Homo sapiens)",
    "%-inhibition, BRSK1 / %": -6
  },
  {
    "compound": "CC(C)(C)c1nc(-c2cccc(NS(=O)(=O)c3c(F)cccc3F)c2F)c(-c2ccnc(N)n2)s1",
    "experimental system": "panel of more than 300 wild-type and mutant kinases (313 kinase panel) (Homo sapiens)",
    "%-inhibition, BRSK1 / %": 37
  },
  {
    "compound": "COc1cc2nccc(Oc3ccc(NC(=O)C4(C(=O)Nc5ccc(F)cc5)CC4)cc3)c2cc1OC [cabozantinib]",
    "experimental system": "panel of more than 300 wild-type and mutant kinases (313 kinase panel) (Homo sapiens)",
    "%-inhibition, BRSK1 / %": 3.24
  },
  {
    "compound": "CO[C@H]1C[C@@H]2CC[C@@H](C)[C@@](O)(O2)C(=O)C(=O)N2CCCC[C@H]2C(=O)O[C@H]([C@H](C)C[C@@H]2CC[C@@H](OCCO)[C@H](OC)C2)CC(=O)[C@H](C)/C=C(\\C)[C@@H](O)[C@@H](OC)C(=O)[C@H](C)C[C@H](C)/C=C/C=C/C=C/1C",
    "experimental system": "panel of more than 300 wild-type and mutant kinases (313 kinase panel) (Homo sapiens)",
    "%-inhibition, BRSK1 / %": -9
  }
]
